Data origin, for the record: ChEMBL document CHEMBL4371087

# testedTarget: UniProtKB Q13133
# Sequence (Q13133 whole entry): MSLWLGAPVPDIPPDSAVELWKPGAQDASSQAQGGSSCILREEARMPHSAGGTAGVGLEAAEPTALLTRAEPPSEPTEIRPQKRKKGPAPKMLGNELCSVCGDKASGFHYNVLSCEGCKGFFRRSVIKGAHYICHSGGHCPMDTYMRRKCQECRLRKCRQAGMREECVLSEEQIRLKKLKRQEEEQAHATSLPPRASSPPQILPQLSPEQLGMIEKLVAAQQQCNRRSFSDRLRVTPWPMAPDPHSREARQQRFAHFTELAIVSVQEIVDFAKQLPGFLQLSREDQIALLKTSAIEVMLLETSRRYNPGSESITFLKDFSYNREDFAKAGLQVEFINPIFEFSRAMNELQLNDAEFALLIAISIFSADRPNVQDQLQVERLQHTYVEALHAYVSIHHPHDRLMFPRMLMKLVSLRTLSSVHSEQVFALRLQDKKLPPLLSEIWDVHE
# assayDetails: Agonist activity at full length human LXRalpha expressed in HEK293 cells harboring LXRE-Luc promoter by luciferase reporter gene assay
Response field label takes Condition met when EC50 is strictly below 700 nM and Condition not met in all other cases.

Record excerpt, results attached:
structureSmiles: COc1cccc(-c2nc(-c3ccccc3)n(C(C)=O)n2)c1
classLabel: Condition met
//
structureSmiles: c1ccc(-c2n[nH]c(-c3ccccc3)n2)cc1
classLabel: Condition met
//
structureSmiles: CCn1nc(-c2ccc(Br)cc2)nc1-c1ccccc1
classLabel: Condition not met
//
structureSmiles: CC(=O)n1nc(-c2ccccc2)nc1-c1ccccc1
classLabel: Condition met
//
structureSmiles: Cc1ccc(S(=O)(=O)n2nc(-c3ccccc3)nc2-c2ccccc2)cc1
classLabel: Condition not met
//
structureSmiles: Brc1ccccc1-c1n[nH]c(-c2ccccc2)n1
classLabel: Condition met

Q. Just wondering, is EC50 of `CC(=O)n1nc(-c2ccc(Br)cc2)nc1-c1ccccc1` below 700 nM?
A. Condition met

Q. Quick check: does `CC(=O)n1nc(-c2ccc(C)cc2)nc1-c1ccccc1` have EC50 under 700 nM?
A. Condition met

Q. Decide: EC50 of `Brc1ccc(-c2n[nH]c(-c3ccccc3)n2)cc1` strictly below 700 nM?
A. Condition met

Q. Bench note: check whether `Cc1ccc(-c2n[nH]c(-c3ccccc3)n2)cc1` shows EC50 below 700 nM
A. Condition met

Q. Input `CCCCn1nc(-c2ccccc2)nc1-c1ccccc1` ; condition: EC50 strictly below 700 nM. Does it hold?
A. Condition not met

Q. Does this molecule meet the criterion EC50 < 700 nM? `c1ccc(Cn2nc(-c3ccccc3)nc2-c2ccccc2)cc1`
A. Condition not met
